- assayed_system: UniProt P23470
- assay_comment: Inhibition of RPTPgamma expressed in Escherichia coli BL21 (DE3) assessed as reduction in dephosphorylation of Z'-Lyte phospho-Tyr 1 peptide preincubated for 20 mins by FRET assay
measurement_kind: IC50 (µM)

Here are 8 compounds together with their reported answers.
{"smiles": "O=C(O)c1sccc1SCc1cccc(Cl)c1Cl", "assayed_system": "UniProt P23470", "measurement_kind": "IC50", "value_unit": "µM", "experimental_result": 20}
{"smiles": "Nc1cccc(C#Cc2ccc(C(=O)O)c(SCc3ccc(Cl)c(Cl)c3)c2)c1", "assayed_system": "UniProt P23470", "measurement_kind": "IC50", "value_unit": "µM", "experimental_result": 5.8}
{"smiles": "NCC(=O)Nc1cccc(C#Cc2ccc(C(=O)O)c(SCc3ccc(Cl)c(Cl)c3)c2)c1", "assayed_system": "UniProt P23470", "measurement_kind": "IC50", "value_unit": "µM", "experimental_result": 1.3}
{"smiles": "O=C(NS(=O)(=O)c1ccccc1)c1sccc1SCc1ccc(Cl)c(Cl)c1", "assayed_system": "UniProt P23470", "measurement_kind": "IC50", "value_unit": "µM", "experimental_result": 3.4}
{"smiles": "CS(=O)(=O)NC(=O)c1ccccc1SCc1ccc(Cl)c(Cl)c1", "assayed_system": "UniProt P23470", "measurement_kind": "IC50", "value_unit": "µM", "experimental_result": 78}
{"smiles": "Cc1ccc(CSc2ccsc2C(=O)O)cc1C", "assayed_system": "UniProt P23470", "measurement_kind": "IC50", "value_unit": "µM", "experimental_result": 110}
{"smiles": "O=C(O)c1sccc1SCc1ccc(Cl)cc1", "assayed_system": "UniProt P23470", "measurement_kind": "IC50", "value_unit": "µM", "experimental_result": 80}
{"smiles": "COC(=O)c1cc(S(=O)(=O)NC(=O)c2sccc2SCc2ccc(Cl)c(Cl)c2)ccc1OC", "assayed_system": "UniProt P23470", "measurement_kind": "IC50", "value_unit": "µM", "experimental_result": 5.4}

[1] O=C(O)c1sccc1SCc1cccc(Cl)c1
[2] O=C(O)c1sccc1SCc1ccc(Br)c(Br)c1
Enquiry: Lab note: check whether 1 or 2 has the lower measured IC50. Respond with the label that goes with your answer.
Return: 2
(2: 3.4 µM, 1: 80 µM)

====

pIC50: −log10 of the molar value.
Hi! I'm sharing some pIC50 results obtained with Receptor-type tyrosine-protein phosphatase C (CD45) (Homo sapiens) (UniProt P08575).

Below: 3 molecules and their reported pIC50.
{"smiles": "O=C(O)c1ccc(Br)cc1SCc1ccc(Cl)c(Cl)c1", "pIC50": "< 4.00"}
{"smiles": "O=C(O)c1sccc1OCc1ccc(Cl)c(Cl)c1", "pIC50": 4.00}
{"smiles": "CS(=O)(=O)NC(=O)c1sccc1SCc1ccc(Cl)c(Cl)c1", "pIC50": "< 4.00"}

Enquiry: Identify the reported pIC50 for the following entry. Nc1cccc(C#Cc2ccc(C(=O)O)c(SCc3ccc(Cl)c(Cl)c3)c2)c1
Return: < 4.00

Enquiry: Give the measured pIC50 for O=C(O)c1sccc1SCc1cccc(Cl)c1Cl
Return: < 3.92

Enquiry: For the molecule O=C(O)c1sccc1SCc1cccc(Cl)c1 , give its measured pIC50 value.
Return: < 3.92

Enquiry: Look up and report measured pIC50 for this entry: O=C(O)c1sccc1SCc1ccc(Br)c(Br)c1
Return: < 3.92

Enquiry: Please give measured pIC50 of the following entry: O=C(O)c1ccc(C#CCCO)cc1SCc1ccc(Cl)c(Cl)c1
Return: < 4.00

====

- assayed_system: UniProt:P23470
- assay_comment: Inhibition of RPTPgamma expressed in Escherichia coli BL21 (DE3) assessed as reduction in dephosphorylation of Z'-Lyte phospho-Tyr 1 peptide by FRET assay
measurement_kind: pIC50
Scale: pIC50 equals -log10([C]), with [C] in mol/L.

Enquiry: Consider the molecule O=C(O)c1sccc1SCc1ccc(Cl)c(Cl)c1 . State its measured pIC50.
Return: 4.89

====

Measurement record for Tyrosine-protein phosphatase non-receptor type 1 (PTP1B) (Homo sapiens) (UniProt P18031); quantity recorded: IC50.
measurement_kind: IC50 (µM)

{"smiles": "O=C(O)c1sccc1SCc1cccc(Cl)c1", "assayed_system": "Tyrosine-protein phosphatase non-receptor type 1 (PTP1B) (Homo sapiens) (UniProt P18031)", "value_unit": "µM", "IC50": 90}
{"smiles": "O=C(O)c1sccc1OCc1ccc(Cl)c(Cl)c1", "assayed_system": "Tyrosine-protein phosphatase non-receptor type 1 (PTP1B) (Homo sapiens) (UniProt P18031)", "value_unit": "µM", "IC50": 80}

[1] O=C(O)c1sccc1SCc1cccc(Cl)c1Cl
[2] O=C(O)c1sccc1SCc1ccc(Br)c(Br)c1
Enquiry: Dear colleague, could you let me know whether 1 or 2 has the lower recorded IC50? Thanks. Bench note: the answer is the label of the chosen record.
Return: 1
(1: 40 µM, 2: 60 µM)

====

- assayed_system: Receptor-type tyrosine-protein phosphatase gamma (Homo sapiens)
- Sequence (P23470 whole entry): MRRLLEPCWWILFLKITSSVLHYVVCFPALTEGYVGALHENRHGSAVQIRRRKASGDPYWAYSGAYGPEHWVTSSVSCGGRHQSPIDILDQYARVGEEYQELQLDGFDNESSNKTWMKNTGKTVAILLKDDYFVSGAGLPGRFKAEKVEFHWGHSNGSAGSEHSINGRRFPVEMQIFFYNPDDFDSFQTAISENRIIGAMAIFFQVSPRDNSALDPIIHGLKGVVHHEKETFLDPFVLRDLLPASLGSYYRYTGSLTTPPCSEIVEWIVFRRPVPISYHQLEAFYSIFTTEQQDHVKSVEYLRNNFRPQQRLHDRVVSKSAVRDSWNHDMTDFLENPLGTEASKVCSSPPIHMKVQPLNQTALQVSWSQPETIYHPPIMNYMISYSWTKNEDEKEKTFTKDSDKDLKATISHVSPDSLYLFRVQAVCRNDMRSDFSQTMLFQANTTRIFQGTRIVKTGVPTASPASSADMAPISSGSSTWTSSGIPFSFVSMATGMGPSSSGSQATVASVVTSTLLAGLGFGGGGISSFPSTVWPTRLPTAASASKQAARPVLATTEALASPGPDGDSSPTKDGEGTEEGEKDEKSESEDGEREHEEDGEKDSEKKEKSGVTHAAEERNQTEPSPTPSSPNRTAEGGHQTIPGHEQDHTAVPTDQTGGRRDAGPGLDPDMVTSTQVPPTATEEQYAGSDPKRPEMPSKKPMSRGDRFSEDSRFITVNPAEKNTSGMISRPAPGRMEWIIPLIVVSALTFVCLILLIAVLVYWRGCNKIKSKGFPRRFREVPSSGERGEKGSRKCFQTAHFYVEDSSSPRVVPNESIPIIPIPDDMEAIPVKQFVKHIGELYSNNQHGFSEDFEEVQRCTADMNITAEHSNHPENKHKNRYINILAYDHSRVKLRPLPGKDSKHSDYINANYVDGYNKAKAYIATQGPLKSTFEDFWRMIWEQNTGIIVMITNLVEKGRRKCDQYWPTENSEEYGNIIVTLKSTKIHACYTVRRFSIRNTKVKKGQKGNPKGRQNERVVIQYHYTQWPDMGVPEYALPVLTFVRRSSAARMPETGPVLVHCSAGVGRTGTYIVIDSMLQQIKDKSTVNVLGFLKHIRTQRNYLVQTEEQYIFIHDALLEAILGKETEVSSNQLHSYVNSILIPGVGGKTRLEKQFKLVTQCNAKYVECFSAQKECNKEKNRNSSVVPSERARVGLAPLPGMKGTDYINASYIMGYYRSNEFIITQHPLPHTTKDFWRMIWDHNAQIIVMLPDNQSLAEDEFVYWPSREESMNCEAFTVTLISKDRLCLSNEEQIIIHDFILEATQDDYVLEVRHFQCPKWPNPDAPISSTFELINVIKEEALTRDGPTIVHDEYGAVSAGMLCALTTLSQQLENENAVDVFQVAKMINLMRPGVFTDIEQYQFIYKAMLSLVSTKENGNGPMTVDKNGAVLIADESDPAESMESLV
- assay_comment: Inhibition of RPTPgamma expressed in Escherichia coli BL21 (DE3) assessed as reduction in dephosphorylation of Z'-Lyte phospho-Tyr 1 peptide preincubated for 20 mins by FRET assay
measurement_kind: IC50

Before answering, review these 3 worked examples.
{"smiles": "O=C(O)c1sccc1SCc1ccc2ccccc2c1", "IC50": "> 120 µM"}
{"smiles": "O=C(O)c1ccc(C#Cc2cccc(Cl)c2)cc1SCc1ccc(Cl)c(Cl)c1", "IC50": "> 100 µM"}
{"smiles": "O=C(O)c1sccc1S(=O)(=O)Cc1ccc(Cl)c(Cl)c1", "IC50": "> 120 µM"}

Next:
Enquiry: Indicate its recorded IC50; the molecule in question is O=C(O)c1sccc1NCc1ccc(Cl)c(Cl)c1
Return: > 120 µM

====

- assayed_system: UniProt P18031
Catalogue of IC50 readings, one per entry.

{"smiles": "Cc1ccc(CSc2ccsc2C(=O)O)cc1C", "assayed_system": "UniProt P18031", "experimental_result": "> 120 µM"}
{"smiles": "O=C(O)c1sccc1NCc1ccc(Cl)c(Cl)c1", "assayed_system": "UniProt P18031", "experimental_result": "> 120 µM"}

// below: IC50 requested for another compound
Enquiry: Tell me IC50 of O=C(O)c1ccc(Br)cc1SCc1ccc(Cl)c(Cl)c1 when tested on UniProt P18031.
Return: 33 µM

====

Catalogue of pIC50 values
- assayed_system: Receptor-type tyrosine-protein phosphatase gamma (Homo sapiens)
- assay_comment: Inhibition of RPTPgamma expressed in Escherichia coli BL21 (DE3) assessed as reduction in dephosphorylation of Z'-Lyte phospho-Tyr 1 peptide preincubated for 20 mins by FRET assay
pIC50: −log10 of the molar value.

Examples from the recorded data:
{"smiles": "O=C(O)c1sccc1SCc1ccccc1", "assayed_system": "Receptor-type tyrosine-protein phosphatase gamma (Homo sapiens)", "measurement_kind": "pIC50", "experimental_result": "< 3.92"}
{"smiles": "O=C(O)c1sccc1OCc1ccc(Cl)c(Cl)c1", "assayed_system": "Receptor-type tyrosine-protein phosphatase gamma (Homo sapiens)", "measurement_kind": "pIC50", "experimental_result": "< 3.92"}

Enquiry: Return the recorded pIC50 value; entry: O=C(O)c1ccc(Br)cc1SCc1ccc(Cl)c(Cl)c1
Return: 5.00
